test.system: Glycogen synthase kinase-3 beta (Homo sapiens, UniProt P49841)
Sequence (P49841 whole entry): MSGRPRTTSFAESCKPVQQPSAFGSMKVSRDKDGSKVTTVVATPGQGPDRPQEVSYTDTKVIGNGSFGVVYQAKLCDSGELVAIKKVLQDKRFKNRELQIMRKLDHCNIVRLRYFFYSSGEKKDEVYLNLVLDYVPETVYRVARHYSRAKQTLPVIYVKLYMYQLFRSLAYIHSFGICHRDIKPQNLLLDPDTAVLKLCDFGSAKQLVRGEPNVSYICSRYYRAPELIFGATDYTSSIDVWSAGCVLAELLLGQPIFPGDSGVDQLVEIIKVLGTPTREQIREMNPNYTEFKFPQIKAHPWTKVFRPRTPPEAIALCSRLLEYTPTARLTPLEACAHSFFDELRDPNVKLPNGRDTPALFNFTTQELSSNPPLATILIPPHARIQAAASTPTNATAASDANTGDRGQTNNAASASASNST
measurement.notes: concentration-response blocking of human GSK3B – biochemical, luminescence, cell-free homogeneous, retest, dose response (AID 434954)
Reported EC50 by item:
metric.name: EC50

# compound, test.system, result
data = [
    ("O=NCc1ccc(Oc2ccc(F)cc2)c([N+](=O)[O-])c1", "Glycogen synthase kinase-3 beta (Homo sapiens, UniProt P49841)", "23 µM"),
    ("CCSc1ncnc2c(C#N)c3n(c12)CCCCC3", "Glycogen synthase kinase-3 beta (Homo sapiens, UniProt P49841)", "77.5 µM"),
    ("COc1cc(/C=N/NC(=O)c2ccccc2F)ccc1Oc1ccc([N+](=O)[O-])cn1", "Glycogen synthase kinase-3 beta (Homo sapiens, UniProt P49841)", "> 300 µM"),
    ("CCc1n[nH]c(SCC(=O)Nc2ccc(Br)cn2)n1", "Glycogen synthase kinase-3 beta (Homo sapiens, UniProt P49841)", "17.5 µM"),
    ("COc1ccccc1N(CC(=O)N1CCc2ccccc2C1)S(C)(=O)=O", "Glycogen synthase kinase-3 beta (Homo sapiens, UniProt P49841)", "> 300 µM"),
    ("CCN1CCN(c2cc(C)c3cc(NC(=O)c4cccc(OC)c4)ccc3n2)CC1", "Glycogen synthase kinase-3 beta (Homo sapiens, UniProt P49841)", "> 300 µM"),
    ("CCOC(=O)Cc1csc(NC(=O)c2c(O)c3ccccc3n(CCC(C)C)c2=O)n1", "Glycogen synthase kinase-3 beta (Homo sapiens, UniProt P49841)", "> 300 µM"),
    ("Cc1cc(C)n(S(=O)(=O)c2ccc(C)c(C)c2)n1", "Glycogen synthase kinase-3 beta (Homo sapiens, UniProt P49841)", "> 300 µM"),
    ("COCCN(CC(=O)NCc1ccc(F)cc1)C(=O)CCC(=O)Nc1ccccn1", "Glycogen synthase kinase-3 beta (Homo sapiens, UniProt P49841)", "> 300 µM"),
    ("COc1cccc(-n2c(Cn3nc(C(F)F)cc3C(F)F)n[nH]c2=S)c1", "Glycogen synthase kinase-3 beta (Homo sapiens, UniProt P49841)", "> 300 µM"),
    ("CC(NCCC(Cc1ccccc1)c1ccco1)c1ccccc1 (stereo unspecified)", "Glycogen synthase kinase-3 beta (Homo sapiens, UniProt P49841)", "> 300 µM"),
    ("CC(C(=O)Nc1nc2ccccc2s1)n1cc([N+](=O)[O-])cn1 (stereo unspecified)", "Glycogen synthase kinase-3 beta (Homo sapiens, UniProt P49841)", "> 300 µM"),
    ("Cc1ccccc1NC(=O)CSc1nnc2ccc(-c3ccncc3)nn12", "Glycogen synthase kinase-3 beta (Homo sapiens, UniProt P49841)", "> 300 µM"),
    ("Nc1nc(Nc2ccccc2F)sc1C(=O)c1ccccc1", "Glycogen synthase kinase-3 beta (Homo sapiens, UniProt P49841)", "0.622 µM"),
    ("CCc1ccc(CNC(=O)C2CCC(=O)N(CCc3ccc(Cl)cc3)C2)nc1 (stereo unspecified)", "Glycogen synthase kinase-3 beta (Homo sapiens, UniProt P49841)", "> 300 µM"),
    ("CCSc1ccc2nnc(-c3cccs3)n2n1", "Glycogen synthase kinase-3 beta (Homo sapiens, UniProt P49841)", "11.3 µM"),
    ("COc1cccc2c1cc1c(=O)n(CC(=O)NCCCN3CCCCC3)nc(C)n12", "Glycogen synthase kinase-3 beta (Homo sapiens, UniProt P49841)", "> 300 µM"),
    ("O=C(Nc1ccc([N+](=O)[O-])cn1)C1CC1", "Glycogen synthase kinase-3 beta (Homo sapiens, UniProt P49841)", "23.1 µM"),
    ("COc1ccc(NC(=O)NC2CCCc3ccccc32)cc1 (stereo unspecified)", "Glycogen synthase kinase-3 beta (Homo sapiens, UniProt P49841)", "> 300 µM"),
    ("Nc1nonc1-n1nnc(C(=O)NN=Cc2ccccc2F)c1CN1CCc2ccccc21", "Glycogen synthase kinase-3 beta (Homo sapiens, UniProt P49841)", "22.5 µM"),
    ("Cc1c([CH+][N-]NC(=O)COc2ccccc2[N+](=O)[O-])c2ccccc2n1C", "Glycogen synthase kinase-3 beta (Homo sapiens, UniProt P49841)", "> 300 µM"),
    ("NS(=O)(=O)c1ccc(CCNC(=O)CSc2nc3ccsc3c(=O)n2C2CC2)cc1", "Glycogen synthase kinase-3 beta (Homo sapiens, UniProt P49841)", "> 300 µM"),
    ("Cc1ccc(N2CCN(C(=O)N3CCOCC3)CC2)c(C)c1", "Glycogen synthase kinase-3 beta (Homo sapiens, UniProt P49841)", "> 300 µM"),
    ("O=C1NC(=NNc2ccccc2)SC1=Cc1ccccc1", "Glycogen synthase kinase-3 beta (Homo sapiens, UniProt P49841)", "> 300 µM"),
    ("COc1cc(/C=N/NC(=O)c2cccc(Cl)c2)ccc1Oc1ccc([N+](=O)[O-])cn1", "Glycogen synthase kinase-3 beta (Homo sapiens, UniProt P49841)", "> 300 µM"),
    ("CC(=O)NC(=S)Nc1ccccc1N1CCCCC1", "Glycogen synthase kinase-3 beta (Homo sapiens, UniProt P49841)", "> 300 µM"),
    ("COc1ccc(-c2nn(-c3ccccc3)cc2C=NNC(=O)c2ccc(Br)o2)cc1", "Glycogen synthase kinase-3 beta (Homo sapiens, UniProt P49841)", "> 300 µM"),
    ("Cc1cc(C)c(C#N)c(SCC(=O)c2ccc(Cl)cc2Cl)n1", "Glycogen synthase kinase-3 beta (Homo sapiens, UniProt P49841)", "> 300 µM"),
    ("COC(=O)c1ccccc1Nc1ccnc(Cl)n1", "Glycogen synthase kinase-3 beta (Homo sapiens, UniProt P49841)", "> 300 µM"),
    ("CCCCc1cc(=O)oc2cc(OS(C)(=O)=O)ccc12", "Glycogen synthase kinase-3 beta (Homo sapiens, UniProt P49841)", "> 300 µM"),
    ("COc1ccc(OC)c(C(=O)c2coc3ccc(O)c(CN(C)C)c23)c1", "Glycogen synthase kinase-3 beta (Homo sapiens, UniProt P49841)", "> 300 µM"),
    ("C[C@H](C(O)c1ccccc1)N(C)C(=O)CN (stereo partly specified)", "Glycogen synthase kinase-3 beta (Homo sapiens, UniProt P49841)", "> 300 µM"),
    ("C=CCN=C(NC#N)SC", "Glycogen synthase kinase-3 beta (Homo sapiens, UniProt P49841)", "> 300 µM"),
    ("Cc1ccccc1CSc1nnc(-c2ccncc2)o1", "Glycogen synthase kinase-3 beta (Homo sapiens, UniProt P49841)", "22.1 µM"),
    ("Nc1nnnn1/N=C/c1ccc(N2CCCCC2)c([N+](=O)[O-])c1", "Glycogen synthase kinase-3 beta (Homo sapiens, UniProt P49841)", "> 300 µM"),
    ("CN1CCN(C(=O)Cn2ncc3c([nH]c4ccccc43)c2=O)CC1", "Glycogen synthase kinase-3 beta (Homo sapiens, UniProt P49841)", "> 300 µM"),
]

Recorded values, source BindingDB's records for doi:10.7270/Q2TX3CTT.
